Measured values drawn from patent US6140338A for this set.

Target protein (sequence): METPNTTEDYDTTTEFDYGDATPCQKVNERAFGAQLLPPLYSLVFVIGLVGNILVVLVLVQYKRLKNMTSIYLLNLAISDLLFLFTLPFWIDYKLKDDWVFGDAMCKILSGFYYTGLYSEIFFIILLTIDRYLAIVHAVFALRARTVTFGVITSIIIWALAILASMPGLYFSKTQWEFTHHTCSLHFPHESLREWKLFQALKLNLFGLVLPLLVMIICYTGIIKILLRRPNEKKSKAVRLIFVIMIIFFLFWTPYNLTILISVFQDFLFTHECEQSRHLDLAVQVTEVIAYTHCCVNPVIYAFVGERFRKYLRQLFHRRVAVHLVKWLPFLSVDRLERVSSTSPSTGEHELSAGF
reported-endpoint: pIC50
pIC50 field: float, defined as -log10 of concentration (mol/L).

The value of pIC50 measured for the compound C[N+]1(CC2CCCCCCC2)CCC(NC(=O)C2c3cc(Br)ccc3Oc3ccc(Br)cc32)CC1 (centres unmarked) [Example 22] turned out to be 8.41

Notebook: O=C(NC1CCN(CC2=CCCCCCCC2)CC1)C1c2ccccc2Oc2ccccc21 [Example 61 (named cis for convenience)] , pIC50 read as 8.74

Query CC[N+]1(CC2CCCCCCC2)CCC(NC(=O)C2c3cc(Br)ccc3Oc3ccc(Br)cc32)CC1 (single isomer, unassigned) [Example 26 (named cis for convenience)] yields pIC50 of 8.72

pIC50 for CC[N+]1(CC2CCCCCCC2)CCC(NC(=O)C2c3ccccc3Oc3ccccc32)CC1.[I-] (centres unmarked) [Example 12] is 8.28

The recorded pIC50 for CC[N+]1(CC2=CCCCCCC2)CCC(NC(=O)C2c3cc(Cl)ccc3Oc3ccc(Cl)cc32)CC1 (stereo not drawn) [Example 62 (named cis for convenience)] is 8.74
